# System: LDLR
# ASSAY_SUMMARY: ELISA of LDLR protein in HepG2 cells; note: test concentration or dose not given here
# Assay type: cell-based, human
# ASSAY_CONDITIONS: HepG2 cells
ASSAY_METRIC: ELISA LDLR

Look over these answered cases.
1) O=C(C[C@H]1CC[C@H]2[C@@H](COC[C@@H](O)CN2Cc2ccc(Oc3ccccc3)cc2)O1)N1CCc2ccccc2C1
B (Increase >2-fold)
2) CC(C)c1c(C(=O)Nc2ccccc2)c(-c2ccccc2)c(-c2ccc(F)cc2)n1CC[C@@H](O)C[C@@H](O)CC(=O)O [Atorvastatin, atorvastatin, reference compound]
A (Increase <2-fold)
3) O=C(C[C@@H]1CC[C@@H]2[C@H](COC[C@H](O)CN2CCC(F)(F)F)O1)NCc1ccc(Oc2ccccc2)cc1 [Compound 10a]
N
4) CN1C(=O)c2cc(NC(=O)c3ccc(C(F)(F)F)cc3)ccc2OC[C@@H]2O[C@@H](CC(=O)NC3Cc4ccccc4C3)CC[C@@H]21
B (Increase >2-fold)
5) O=C(C[C@@H]1CC[C@H]2[C@@H](COC[C@H](O)CN2Cc2ccc(Oc3ccccc3)cc2)O1)N1CCc2ccccc2C1
A (Increase <2-fold)
6) O=C(C[C@H]1C[C@H]2c3cc(NC(=O)c4ccc5c(c4)OCO5)ccc3O[C@H]2[C@H](CO)O1)NCc1ccc(Oc2ccccc2)cc1 [Compound 11a]
B (Increase >2-fold)
7) Cc1cc(C(=O)Nc2ccc3c(c2)C(=O)N(C)[C@H]2CC[C@@H](CC(=O)NCc4ccc(-c5ccccc5)cc4)O[C@@H]2CO3)no1
B (Increase >2-fold)
8) O=C(C[C@@H]1CC[C@@H]2[C@H](COC[C@@H](O)CN2CCC(F)(F)F)O1)NCc1ccc(Oc2ccccc2)cc1
B (Increase >2-fold)
9) CN(C)c1ccc2c(c1)[C@@H]1C[C@@H](CC(=O)NCc3ccc(Oc4ccccc4)cc3)O[C@@H](CO)[C@@H]1O2 [Compound 12a]
B (Increase >2-fold)
10) CN1C(=O)c2cc(NC(=O)Cc3cccs3)ccc2OC[C@@H]2O[C@H](CC(=O)NCc3ccc(-c4ccccc4)cc3)CC[C@@H]21
A (Increase <2-fold)

Indicate its recorded ELISA LDLR; the compound in question is O=C(C[C@H]1CC[C@@H]2[C@H](COC[C@H](O)CN2Cc2ccc(Oc3ccccc3)cc2)O1)N1CCc2ccccc2C1
B (Increase >2-fold)
